Attribution: the supplement of paper PMC10567573

B1: ZNF511 (parent)
chain: YEHHYHTLHGNVCSFCKRAFPSGH

- Variants of: B1
- testDetails: protein stability index of a GFP-peptide fusion (GPS, HEK-293T) (PSI 1-6); higher = more stable;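 further: lentivirally expressed fusions sorted by FACS into six bins by GFP to DsRed ratio, PSI derived from sequencing read proportions per bin multiplied by bin number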
- conditionParameters: c terminus: a fixed tail appended
I would appreciate it if you labelled entries T when protein stability index is 2 or higher, otherwise F.

seqText: YEHHYHTLHNNVCSFCKRAFPSGH [G10N]
labelValue: T

seqText: YEHHYHTLHGNVCSFCMRAFPSGH [K17M]
labelValue: F

In: In plain terms: is recorded protein stability index at least 2 for YEHHYHTLHGNVCSFCKRAFPSWH [G23W] ?
Out: F

In: Okay, and YEHHYHTEHGNVCSFCKRAFPSGH [L8E] ?
Out: T

In: Okay, and YEHHYHTCHGNVCSFCKRAFPSGH [L8C] ?
Out: T

In: Okay, and YKHHYHTLHGNVCSFCKRAFPSGH [E2K] ?
Out: F

In: Okay, and YEHHYHTLHGNVCSFCKRAFPSGW [H24W] ?
Out: T

In: Okay, and YEHHYHTGHGNVCSFCKRAFPSGH [L8G] ?
Out: T
